Values were extracted from patent US8536183B2.

Quick reference: IC50 of the listed items.
System Tested: hCaV2.2 (Homo sapiens, UniProt Q00975)
Construct: expressed in transfected cells; plasmids pCIN5-hCaV2.2, pCIH-hCaV β3, pCIP-α2δ1
Sequence (Q00975 whole entry): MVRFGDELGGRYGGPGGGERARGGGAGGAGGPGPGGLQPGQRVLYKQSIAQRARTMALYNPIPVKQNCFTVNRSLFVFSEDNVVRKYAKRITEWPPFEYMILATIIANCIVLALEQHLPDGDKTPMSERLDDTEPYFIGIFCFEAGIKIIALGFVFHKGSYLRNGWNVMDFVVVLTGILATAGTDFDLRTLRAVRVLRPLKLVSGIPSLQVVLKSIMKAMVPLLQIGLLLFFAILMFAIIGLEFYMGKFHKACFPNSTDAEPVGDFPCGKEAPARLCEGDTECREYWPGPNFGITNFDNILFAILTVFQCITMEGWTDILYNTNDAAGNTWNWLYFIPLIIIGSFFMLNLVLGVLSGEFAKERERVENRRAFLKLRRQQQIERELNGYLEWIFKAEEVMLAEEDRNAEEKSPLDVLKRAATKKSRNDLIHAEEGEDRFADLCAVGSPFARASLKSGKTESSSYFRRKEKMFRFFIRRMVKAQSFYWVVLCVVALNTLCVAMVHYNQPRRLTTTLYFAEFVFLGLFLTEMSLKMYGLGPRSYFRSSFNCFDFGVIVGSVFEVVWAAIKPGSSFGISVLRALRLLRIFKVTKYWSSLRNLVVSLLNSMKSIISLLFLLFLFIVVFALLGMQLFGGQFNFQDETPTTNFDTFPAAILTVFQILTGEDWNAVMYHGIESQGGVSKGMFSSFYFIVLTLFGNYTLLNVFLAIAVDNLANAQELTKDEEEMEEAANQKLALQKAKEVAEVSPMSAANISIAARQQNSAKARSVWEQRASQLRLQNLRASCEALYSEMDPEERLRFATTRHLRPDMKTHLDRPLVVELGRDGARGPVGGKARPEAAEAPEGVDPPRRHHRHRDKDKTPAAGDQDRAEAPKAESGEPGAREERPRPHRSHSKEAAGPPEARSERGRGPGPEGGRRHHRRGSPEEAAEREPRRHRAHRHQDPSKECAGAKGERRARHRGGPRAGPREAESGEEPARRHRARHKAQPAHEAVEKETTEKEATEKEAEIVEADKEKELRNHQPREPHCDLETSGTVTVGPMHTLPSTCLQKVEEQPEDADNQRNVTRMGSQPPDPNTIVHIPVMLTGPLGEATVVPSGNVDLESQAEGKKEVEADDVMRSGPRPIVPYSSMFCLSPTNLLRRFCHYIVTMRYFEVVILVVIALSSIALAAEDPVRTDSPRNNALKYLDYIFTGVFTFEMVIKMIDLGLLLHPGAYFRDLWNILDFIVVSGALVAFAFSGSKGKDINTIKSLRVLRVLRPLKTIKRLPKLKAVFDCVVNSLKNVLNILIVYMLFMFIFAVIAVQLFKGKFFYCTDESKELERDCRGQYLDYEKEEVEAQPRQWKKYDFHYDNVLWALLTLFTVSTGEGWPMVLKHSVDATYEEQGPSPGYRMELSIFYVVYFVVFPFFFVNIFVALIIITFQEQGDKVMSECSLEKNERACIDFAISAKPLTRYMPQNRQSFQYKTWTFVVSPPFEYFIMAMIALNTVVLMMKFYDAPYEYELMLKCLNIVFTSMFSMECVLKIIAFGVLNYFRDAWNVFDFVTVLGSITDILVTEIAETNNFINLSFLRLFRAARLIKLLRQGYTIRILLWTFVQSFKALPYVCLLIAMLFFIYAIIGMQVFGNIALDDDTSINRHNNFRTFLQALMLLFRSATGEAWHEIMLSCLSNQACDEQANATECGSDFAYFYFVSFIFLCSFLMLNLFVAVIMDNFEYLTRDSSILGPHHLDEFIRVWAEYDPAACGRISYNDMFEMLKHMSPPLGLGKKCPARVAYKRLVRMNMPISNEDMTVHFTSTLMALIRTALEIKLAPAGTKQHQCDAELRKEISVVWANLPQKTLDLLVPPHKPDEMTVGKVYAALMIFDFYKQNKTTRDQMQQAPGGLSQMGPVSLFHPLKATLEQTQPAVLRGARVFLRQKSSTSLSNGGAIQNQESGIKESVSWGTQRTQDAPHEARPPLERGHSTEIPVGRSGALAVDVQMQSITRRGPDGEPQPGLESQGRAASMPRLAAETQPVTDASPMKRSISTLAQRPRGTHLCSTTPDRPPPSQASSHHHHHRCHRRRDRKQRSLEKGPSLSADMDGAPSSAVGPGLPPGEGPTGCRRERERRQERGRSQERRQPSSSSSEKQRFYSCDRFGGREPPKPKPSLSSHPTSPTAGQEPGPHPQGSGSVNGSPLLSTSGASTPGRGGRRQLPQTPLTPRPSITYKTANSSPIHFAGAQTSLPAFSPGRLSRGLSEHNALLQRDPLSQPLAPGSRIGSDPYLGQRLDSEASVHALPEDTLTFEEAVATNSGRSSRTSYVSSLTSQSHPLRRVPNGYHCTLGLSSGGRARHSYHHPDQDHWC
Measurement Description: hCaV2.2 assay, IonWorks planar array electrophysiology in stably transfected HEK293 cells
Format: cell-based
Test Settings: current elicited by the 1st depolarising pulse inhibited by 50%; HEK293 cells expressing human CaV2.2 alpha/beta3/alpha2delta1; read-out: mean pIC50 (tonic pIC50) (converted)
Counter-ions that a name gives are not always drawn.

Look over these answered cases.
[
  {
    "Compound": "Cc1ncccc1C(=O)N1CCN(S(=O)(=O)c2ccc(C(F)(F)F)cc2)[C@H](C)C1 [Example 10, formic acid salt]",
    "Test Readout": "IC50",
    "Meas Value": "≥ 31.6 µM"
  },
  {
    "Compound": "Cc1ncccc1C(=O)N1CCN(S(=O)(=O)c2ccc(C(F)(F)F)cc2)C[C@H]1C",
    "Test Readout": "IC50",
    "Meas Value": "≥ 31.6 µM"
  },
  {
    "Compound": "C[C@H]1CN(S(=O)(=O)c2ccc(C(F)(F)F)cc2)CCN1C(=O)c1ccc(C#N)nc1",
    "Test Readout": "IC50",
    "Meas Value": "≥ 31.6 µM"
  },
  {
    "Compound": "O=C(c1ccc(N2CCCC2)nc1)N1CCN(S(=O)(=O)c2ccc(C(F)(F)F)cc2)CC1",
    "Test Readout": "IC50",
    "Meas Value": "≥ 31.6 µM"
  },
  {
    "Compound": "O=C(c1cccnc1)N1CCN(S(=O)(=O)c2ccc(C(F)(F)F)cc2)CC1",
    "Test Readout": "IC50",
    "Meas Value": "≥ 31.6 µM"
  }
]

Qu. Form field - read-out: IC50; system: hCaV2.2 (Homo sapiens, UniProt Q00975); submitted item: Cc1cncc(C(=O)N2CCN(S(=O)(=O)c3ccc(C(F)(F)F)cc3)C[C@@H]2C)c1
Ans. ≥ 31.6 µM

Qu. Can you check CN(C)c1ccc(C(=O)N2CCN(S(=O)(=O)c3ccc(C(F)(F)F)cc3)CC2)cn1 next?
Ans. ≥ 31.6 µM

Qu. Can you check Cc1ccc(C(=O)N2CCN(S(=O)(=O)c3ccc(OC(F)F)cc3)C[C@@H]2C)cn1 next?
Ans. ≥ 31.6 µM

Qu. Can you check Cc1ncccc1C(=O)N1CCN(S(=O)(=O)c2ccc(C(F)(F)F)cc2)C[C@@H]1C [Example 2, hydrochloride] next?
Ans. ≥ 31.6 µM

Qu. Can you check Cc1ncccc1C(=O)N1CCN(S(=O)(=O)c2ccc(C(F)(F)F)cc2)[C@@H](C)C1 [Example 12, formic acid salt] next?
Ans. ≥ 31.6 µM

Qu. Can you check CCc1ccc(C(=O)N2CCN(S(=O)(=O)c3ccc(C#N)cc3C)C[C@@H]2C)cn1 [Example 53, hydrochloride] next?
Ans. ≥ 31.6 µM

Qu. Can you check Cc1nc(N2CCC2)ccc1C(=O)N1CCN(S(=O)(=O)c2ccc(C(F)(F)F)cc2)C[C@@H]1C [Example 39, hydrochloride] next?
Ans. ≥ 31.6 µM

Qu. Can you check Cc1cc(N2CCOCC2)ncc1C(=O)N1CCN(S(=O)(=O)c2ccc(C(F)(F)F)cc2)C[C@@H]1C [Example 47, hydrochloride] next?
Ans. ≥ 10 µM

Qu. Can you check Cc1ccc(C(=O)N2CCN(S(=O)(=O)c3ccc(C(F)(F)F)cc3)C[C@H]2C)cn1 next?
Ans. ≥ 31.6 µM

Qu. Can you check Cc1ccc(C(=O)N2CCN(S(=O)(=O)c3ccc(C#N)cc3C)C[C@@H]2C)cn1 next?
Ans. ≥ 31.6 µM

Qu. Can you check C[C@H]1CN(S(=O)(=O)c2ccc(C(F)(F)F)cc2)CCN1C(=O)c1ccc(N2CCOCC2)nc1 [Example 42, hydrochloride] next?
Ans. ≥ 10 µM

Qu. Can you check Cc1ccc(C(=O)N2CCN(S(=O)(=O)c3ccc(OC(F)(F)F)cc3)C[C@@H]2C)cn1 next?
Ans. ≥ 31.6 µM

Qu. Can you check Cc1ccc(C(F)(F)F)cc1S(=O)(=O)N1CCN(C(=O)c2cccnc2C)[C@@H](C)C1 next?
Ans. ≥ 10 µM

Qu. Can you check Cc1ccc(C(F)(F)F)cc1S(=O)(=O)N1CCN(C(=O)c2cccnc2C)CC1 next?
Ans. ≥ 31.6 µM
